- ASSAY TARGET: T1, recombinant C-terminally His-tagged human CD47 (extracellular domain) (human, UniProt Q08722 19-141)
- T1 construct: also called recombinantly expressed human CD47 extracellular domain
- T1 sequence (Q08722 19-141): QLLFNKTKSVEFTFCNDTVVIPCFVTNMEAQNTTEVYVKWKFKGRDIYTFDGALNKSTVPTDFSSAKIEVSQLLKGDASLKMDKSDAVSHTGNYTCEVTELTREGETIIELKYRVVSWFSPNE
- ASSAY PROCEDURE: SPR, Biacore X100; antibody captured by anti-human Fc on a CM5 chip, CD47 extracellular domain as analyte, 1:1 fit
- Experimental: Surface Plasmon Resonance (SPR) was used in addition to analyse binding of the different protein constructs to recombinantly expressed CD47 and to determine their affinity. Association (Kₒₙ) and dissociation (Koff) rate constants were determined by SPR using a Biacore™ X-100 (Cytiva). […] The dissociation constant (KD) was used as a value for the affinity and was calculated from the ratio between Koff and Kₒₙ.
QUANTITY KIND: pKd
When answering, recall that pKd equals minus log10 of the concentration in mol/L, and write that number alone.

[[record]]
binder = "2D6-015 (antibody, IgG4, V domains shown, hIgG4 (humanized IgG4); only the variable domains are tied to the construct; also called VH4/VL3) VH: QVQLVESGGGLVQPGGSLRLSCAASGYTFPSYDINWVRQAPGKGLEWVGWIYPRDGSPKYNEKFKGRFTISADTSKNTAYLQMNSLRAEDTAVYYCARSVYYGTQFAYWGQGTLVTVSS VL: DIQMTQSPSSLSASVGDRVTITCKSSQSLLNSRTRKNYLAWYQQKPGKAPKLLIYWASTRDSGVPSRFSGSGSGTDFTLTISSLQPEDFATYYCKQSFNLVTFGQGTKVEIK"
quantity_kind = "pKd"
readout_number = 6.51

[[record]]
binder = "2D6-005 (antibody, IgG4, V domains shown, hIgG4 (humanized IgG4), human kappa constant light chain from vector; only the variable domains are tied to the construct; also called VH2/VL1) VH: QVELVQSGPEVKKPGSSVKVSCKASGYTFPSYDINWVRQRPGQGLEWMGWIYPRDGSPKYNEKFKGRVTITADTSTSTAYMELHSLRSEDTAVYYCARSVYYGTQFAYWGQGTLVTVSA VL: DIVLTQSPSSLSASVGDRVTMSCKSSQSLLNSRTRKNYLAWYQQKPGKAPKLLIYWASTRDSGVPSRFSGSGSGTDFTLTISSLQPEDIATYYCKQSFNLVTFGGGTKLEIK"
quantity_kind = "pKd"
readout_number = 6.77

[[record]]
binder = "2D6-066 (antibody, IgG1, V domains shown, hIgG1 (humanized IgG1); only the variable domains are tied to the construct; also called VH2.4/VL2) VH: QVELVQSGPEVKKPGSSVKVSCKASGYTFPSYDINWVRQRPGQGLEWMGWIIPRDGSPKYNEKFKGRVTITADTSTSTAYMELHSLRSEDTAVYYCARSVYYGTQFAYWGQGTLVTVSA VL: DIVMTQSPSSLAVSLGERVTMSCKSSQSLLNSRTRKNYLAWYQQKPGQPPKLLIYWASTRDSGVPDRFSGSGSGTDFTLTISSLQAEDVAVYYCKQSFNLVTFGGGTKLEIK"
quantity_kind = "pKd"
readout_number = 5.88

[[record]]
binder = "2D6-067 (antibody, IgG1, V domains shown, hIgG1 (humanized IgG1); only the variable domains are tied to the construct; also called VH2.5/VL2) VH: QVELVQSGPEVKKPGSSVKVSCKASGYTFPSYDINWVRQRPGQGLEWMGWIYPRFGSPKYNEKFKGRVTITADTSTSTAYMELHSLRSEDTAVYYCARSVYYGTQFAYWGQGTLVTVSA VL: DIVMTQSPSSLAVSLGERVTMSCKSSQSLLNSRTRKNYLAWYQQKPGQPPKLLIYWASTRDSGVPDRFSGSGSGTDFTLTISSLQAEDVAVYYCKQSFNLVTFGGGTKLEIK"
quantity_kind = "pKd"
readout_number = 6.66

[[record]]
binder = "2D6-016 (antibody, IgG4, V domains shown, hIgG4 (humanized IgG4); only the variable domains are tied to the construct; also called VH4/VL4) VH: QVQLVESGGGLVQPGGSLRLSCAASGYTFPSYDINWVRQAPGKGLEWVGWIYPRDGSPKYNEKFKGRFTISADTSKNTAYLQMNSLRAEDTAVYYCARSVYYGTQFAYWGQGTLVTVSS VL: DIVMTQSPSSLSASVGDRVTITCKSSQSLLNSRTRKNYLAWYQQKPGKAPKLLIYWASTRDSGVPDRFSGSGSGTDFTLTISSLQPEDFATYYCKQSFNLVTFGQGTKVEIK"
quantity_kind = "pKd"
readout_number = 6.69


Prompt line: State its pKd for this binder: 2D6-076 (antibody, IgG1, V domains shown, hIgG1 (humanized IgG1); only the variable domains are tied to the construct; also called VH2/VL2.7) VH: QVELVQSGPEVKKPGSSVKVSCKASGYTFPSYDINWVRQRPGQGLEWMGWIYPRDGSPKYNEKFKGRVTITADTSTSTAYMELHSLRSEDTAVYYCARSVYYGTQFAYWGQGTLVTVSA VL: DIVLTQSPSSLAVSLGERVTMSCKSSQSLLNSRTRKNYLAWYQQKPGQPPKLLIYWASTRDSGVPDRFSGSGSGTDFTLTISSLQAEDVAVYYCQQSFNLVTFGGGTKLEIK
Response line: 6.01
